Molecular target: d-enCas12a (Acidaminococcus sp., UniProt U2UMQ6 1-1307, E174R;S542R;K548R;D908A;E993A;D1235A)
Assay: Spec-seq (native PAGE EMSA with sequencing of bound and unbound); 25 mM Tris-HCl pH 7.4, 150 mM KCl, 5 mM MgCl2, 10% glycerol, 1 mM DTT, 40 ng/uL salmon sperm DNA; 400 nM Cas12a, 480 nM crRNA, 50 nM library, 37 C 1 h; native PAGE at room temperature; high values mean tight binding;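 further: relative affinity from the bound to unbound sequence frequency ratio in Spec-seq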
Details: protein: recombinant
Documented binding signal across a set of binders
Observed property: binding signal (lnKA)

# Binder, Measured value
measured = [
    ("TTCT (dsDNA) DNA 1: GCTATCTAGTGCTCAGTACGCACTGTTCTAGGAAACTTCTGGCAGGACCAGGTCATGAGATCGGAAGAGCACACGTCTGAACTCCAGTCA DNA 2: TGACTGGAGTTCAGACGTGTGCTCTTCCGATCTCATGACCTGGTCCTGCCAGAAGTTTCCTAGAACAGTGCGTACTGAGCACTAGATAGC RNA: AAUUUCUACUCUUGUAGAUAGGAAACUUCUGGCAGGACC", -0.829),
    ("GGGT (dsDNA) DNA 1: GCTATCTAGTGCTCAGTACGCACTGGGGTAGGAAACTTCTGGCAGGACCAGGTCATGAGATCGGAAGAGCACACGTCTGAACTCCAGTCA DNA 2: TGACTGGAGTTCAGACGTGTGCTCTTCCGATCTCATGACCTGGTCCTGCCAGAAGTTTCCTACCCCAGTGCGTACTGAGCACTAGATAGC RNA: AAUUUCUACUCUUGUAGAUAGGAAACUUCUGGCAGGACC", -5.77),
    ("GTGG (dsDNA) DNA 1: GCTATCTAGTGCTCAGTACGCACTGGTGGAGGAAACTTCTGGCAGGACCAGGTCATGAGATCGGAAGAGCACACGTCTGAACTCCAGTCA DNA 2: TGACTGGAGTTCAGACGTGTGCTCTTCCGATCTCATGACCTGGTCCTGCCAGAAGTTTCCTCCACCAGTGCGTACTGAGCACTAGATAGC RNA: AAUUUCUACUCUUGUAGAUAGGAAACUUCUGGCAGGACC", -5.91),
]
